# Condition label: in methyl acetate, 303.15 K
Observable: solubility (mole fraction)
Reply: number alone, nothing else.

solubility (mole fraction) reading for `O=C(O)c1cc2ccccc2cc1O` : 0.025

###

# Condition label: in acetone, 318.15 K
Observable: solubility (mole fraction)
Reply: number alone, nothing else.

solubility (mole fraction) reading for `O=C(O)c1cc2ccccc2cc1O` : 0.0547

###

# Condition label: in acetic acid, 333.15 K
Observable: solubility (mole fraction)
Reply: number alone, nothing else.

solubility (mole fraction) reading for `O=C(O)c1cc2ccccc2cc1O` : 0.0192

###

# Condition label: in n-propanol, 308.15 K
Observable: solubility (mole fraction)

solubility (mole fraction) reading for `O=C(O)c1cc2ccccc2cc1O` : 0.0323

###

# Condition label: in methanol, 318.15 K
Observable: solubility (mole fraction)
Reply: number alone, nothing else.

solubility (mole fraction) reading for `O=C(O)c1cc2ccccc2cc1O` : 0.0271

###

# Condition label: in isobutanol, 323.15 K
Observable: solubility (mole fraction)
Reply: number alone, nothing else.

solubility (mole fraction) reading for `O=C(O)c1cc2ccccc2cc1O` : 0.0377

###

# Condition label: in n-butanol, 313.15 K
Observable: solubility (mole fraction)
Reply: number alone, nothing else.

solubility (mole fraction) reading for `O=C(O)c1cc2ccccc2cc1O` : 0.0431

###

# Condition label: in methyl acetate, 328.15 K
Observable: solubility (mole fraction)
Reply: number alone, nothing else.

solubility (mole fraction) reading for `O=C(O)c1cc2ccccc2cc1O` : 0.0447

###

# Condition label: in isobutanol, 308.15 K
Observable: solubility (mole fraction)
Reply: number alone, nothing else.

solubility (mole fraction) reading for `O=C(O)c1cc2ccccc2cc1O` : 0.0236

###

# Condition label: in isobutanol, 318.15 K
Observable: solubility (mole fraction)
Reply: number alone, nothing else.

solubility (mole fraction) reading for `O=C(O)c1cc2ccccc2cc1O` : 0.0316

###

# Condition label: in isobutanol, 333.15 K
Observable: solubility (mole fraction)

solubility (mole fraction) reading for `O=C(O)c1cc2ccccc2cc1O` : 0.0501

###

# Condition label: in acetone, 323.15 K
Observable: solubility (mole fraction)
Reply: number alone, nothing else.

solubility (mole fraction) reading for `O=C(O)c1cc2ccccc2cc1O` : 0.0607

###

# Condition label: in n-butanol, 293.15 K
Observable: solubility (mole fraction)
Reply: number alone, nothing else.

solubility (mole fraction) reading for `O=C(O)c1cc2ccccc2cc1O` : 0.0268

###

# Condition label: in ethanol, 308.15 K
Observable: solubility (mole fraction)

solubility (mole fraction) reading for `O=C(O)c1cc2ccccc2cc1O` : 0.0331

###

# Condition label: in methanol, 313.15 K
Observable: solubility (mole fraction)
Reply: number alone, nothing else.

solubility (mole fraction) reading for `O=C(O)c1cc2ccccc2cc1O` : 0.0239

###

# Condition label: in methanol, 293.15 K
Observable: solubility (mole fraction)

solubility (mole fraction) reading for `O=C(O)c1cc2ccccc2cc1O` : 0.0131

###

# Condition label: in methyl acetate, 293.15 K
Observable: solubility (mole fraction)
Reply: number alone, nothing else.

solubility (mole fraction) reading for `O=C(O)c1cc2ccccc2cc1O` : 0.0204

###

# Condition label: in n-propanol, 303.15 K
Observable: solubility (mole fraction)

solubility (mole fraction) reading for `O=C(O)c1cc2ccccc2cc1O` : 0.0288

###

# Condition label: in ethyl acetate, 328.15 K
Observable: solubility (mole fraction)
Reply: number alone, nothing else.

solubility (mole fraction) reading for `O=C(O)c1cc2ccccc2cc1O` : 0.0468

###

# Condition label: in ethanol, 313.15 K
Observable: solubility (mole fraction)
Reply: number alone, nothing else.

solubility (mole fraction) reading for `O=C(O)c1cc2ccccc2cc1O` : 0.037

###

# Condition label: in isobutanol, 313.15 K
Observable: solubility (mole fraction)
Reply: number alone, nothing else.

solubility (mole fraction) reading for `O=C(O)c1cc2ccccc2cc1O` : 0.0279

###

# Condition label: in n-butanol, 333.15 K
Observable: solubility (mole fraction)
Reply: number alone, nothing else.

solubility (mole fraction) reading for `O=C(O)c1cc2ccccc2cc1O` : 0.0663

###

# Condition label: in isopropanol, 313.15 K
Observable: solubility (mole fraction)
Reply: number alone, nothing else.

solubility (mole fraction) reading for `O=C(O)c1cc2ccccc2cc1O` : 0.0406

###

# Condition label: in n-butanol, 303.15 K
Observable: solubility (mole fraction)

solubility (mole fraction) reading for `O=C(O)c1cc2ccccc2cc1O` : 0.0346

###

# Condition label: in ethyl acetate, 293.15 K
Observable: solubility (mole fraction)
Reply: number alone, nothing else.

solubility (mole fraction) reading for `O=C(O)c1cc2ccccc2cc1O` : 0.0222

###

# Condition label: in isopropanol, 323.15 K
Observable: solubility (mole fraction)
Reply: number alone, nothing else.

solubility (mole fraction) reading for `O=C(O)c1cc2ccccc2cc1O` : 0.0514

###

# Condition label: in methyl acetate, 298.15 K
Observable: solubility (mole fraction)
Reply: number alone, nothing else.

solubility (mole fraction) reading for `O=C(O)c1cc2ccccc2cc1O` : 0.0225

###

# Condition label: in acetic acid, 303.15 K
Observable: solubility (mole fraction)
Reply: number alone, nothing else.

solubility (mole fraction) reading for `O=C(O)c1cc2ccccc2cc1O` : 0.00786

###

# Condition label: in n-propanol, 318.15 K
Observable: solubility (mole fraction)
Reply: number alone, nothing else.

solubility (mole fraction) reading for `O=C(O)c1cc2ccccc2cc1O` : 0.0402

###

# Condition label: in ethyl acetate, 303.15 K
Observable: solubility (mole fraction)
Reply: number alone, nothing else.

solubility (mole fraction) reading for `O=C(O)c1cc2ccccc2cc1O` : 0.0278

###

# Condition label: in ethyl acetate, 308.15 K
Observable: solubility (mole fraction)

solubility (mole fraction) reading for `O=C(O)c1cc2ccccc2cc1O` : 0.0309

###

# Condition label: in n-propanol, 293.15 K
Observable: solubility (mole fraction)
Reply: number alone, nothing else.

solubility (mole fraction) reading for `O=C(O)c1cc2ccccc2cc1O` : 0.0234

###

# Condition label: in methanol, 308.15 K
Observable: solubility (mole fraction)
Reply: number alone, nothing else.

solubility (mole fraction) reading for `O=C(O)c1cc2ccccc2cc1O` : 0.0208

###

# Condition label: in ethyl acetate, 333.15 K
Observable: solubility (mole fraction)
Reply: number alone, nothing else.

solubility (mole fraction) reading for `O=C(O)c1cc2ccccc2cc1O` : 0.0533

###

# Condition label: in acetic acid, 308.15 K
Observable: solubility (mole fraction)
Reply: number alone, nothing else.

solubility (mole fraction) reading for `O=C(O)c1cc2ccccc2cc1O` : 0.00913

###

# Condition label: in ethanol, 303.15 K
Observable: solubility (mole fraction)
Reply: number alone, nothing else.

solubility (mole fraction) reading for `O=C(O)c1cc2ccccc2cc1O` : 0.0294

###

# Condition label: in n-butanol, 308.15 K
Observable: solubility (mole fraction)
Reply: number alone, nothing else.

solubility (mole fraction) reading for `O=C(O)c1cc2ccccc2cc1O` : 0.0382

###

# Condition label: in isobutanol, 328.15 K
Observable: solubility (mole fraction)
Reply: number alone, nothing else.

solubility (mole fraction) reading for `O=C(O)c1cc2ccccc2cc1O` : 0.0421

###

# Condition label: in isopropanol, 303.15 K
Observable: solubility (mole fraction)
Reply: number alone, nothing else.

solubility (mole fraction) reading for `O=C(O)c1cc2ccccc2cc1O` : 0.0306

###

# Condition label: in methanol, 333.15 K
Observable: solubility (mole fraction)

solubility (mole fraction) reading for `O=C(O)c1cc2ccccc2cc1O` : 0.0415

###

# Condition label: in isobutanol, 293.15 K
Observable: solubility (mole fraction)
Reply: number alone, nothing else.

solubility (mole fraction) reading for `O=C(O)c1cc2ccccc2cc1O` : 0.0147

###

# Condition label: in ethanol, 323.15 K
Observable: solubility (mole fraction)
Reply: number alone, nothing else.

solubility (mole fraction) reading for `O=C(O)c1cc2ccccc2cc1O` : 0.0469

###

# Condition label: in methanol, 328.15 K
Observable: solubility (mole fraction)

solubility (mole fraction) reading for `O=C(O)c1cc2ccccc2cc1O` : 0.0358

###

# Condition label: in ethyl acetate, 313.15 K
Observable: solubility (mole fraction)
Reply: number alone, nothing else.

solubility (mole fraction) reading for `O=C(O)c1cc2ccccc2cc1O` : 0.0338

###

# Condition label: in acetic acid, 328.15 K
Observable: solubility (mole fraction)

solubility (mole fraction) reading for `O=C(O)c1cc2ccccc2cc1O` : 0.0164

###

# Condition label: in acetic acid, 313.15 K
Observable: solubility (mole fraction)
Reply: number alone, nothing else.

solubility (mole fraction) reading for `O=C(O)c1cc2ccccc2cc1O` : 0.0105

###

# Condition label: in isobutanol, 298.15 K
Observable: solubility (mole fraction)
Reply: number alone, nothing else.

solubility (mole fraction) reading for `O=C(O)c1cc2ccccc2cc1O` : 0.0174

###

# Condition label: in acetone, 313.15 K
Observable: solubility (mole fraction)
Reply: number alone, nothing else.

solubility (mole fraction) reading for `O=C(O)c1cc2ccccc2cc1O` : 0.0506

Data provenance is BigSolDB 2.1.
